tested on: CCRF-CEM leukemia; test: NCI tumour cell line growth inhibition, 48 h
Readings of log10(TGI) for the listed molecules
Could you please treat all values as log10 of TGI in µM?

Recorded log10(TGI), per entry:
INSERT INTO results (smiles_representation, assay_target, measured_result) VALUES
  ('Oc1ccc(Oc2cnc3cc(Cl)ccc3n2)cc1', 'CCRF-CEM leukemia', 1.90),
  ('COc1ccc(-c2nc(-c3ccccn3)c(-c3ccccn3)n2CC(C)C)cc1OC1CCCC1', 'CCRF-CEM leukemia', 1.78);

Asked: // log10(TGI) lookup, key: O=C1/C(=C/c2ccc(Cl)c(Cl)c2)CNC/C1=C\c1ccc(Cl)c(Cl)c1
Given back: 0.75

Asked: Find the recorded log10(TGI) belonging to CCCCCCCCCCC[C@@H](C[C@H]1OC(=O)[C@H]1CCCCCC)OC(=O)[C@@H](CC(C)C)NC=O and report it.
Given back: 1.88

Asked: Any idea what its log10(TGI) is? The molecule is Nc1nc(-c2ccc(Cl)cc2)cc(-c2ccc(Cl)cc2)c1-c1nc2ccccc2o1
Given back: 1.53
